Value source: patent US20100254975A1

measured target: T1, human alpha4beta7 (human, UniProt P13612 34-1032; P26010 20-798)
T1 construct: whole, on cells; also called a4b7; wt
T1 sequence (P13612 34-1032, chain 1 of 2): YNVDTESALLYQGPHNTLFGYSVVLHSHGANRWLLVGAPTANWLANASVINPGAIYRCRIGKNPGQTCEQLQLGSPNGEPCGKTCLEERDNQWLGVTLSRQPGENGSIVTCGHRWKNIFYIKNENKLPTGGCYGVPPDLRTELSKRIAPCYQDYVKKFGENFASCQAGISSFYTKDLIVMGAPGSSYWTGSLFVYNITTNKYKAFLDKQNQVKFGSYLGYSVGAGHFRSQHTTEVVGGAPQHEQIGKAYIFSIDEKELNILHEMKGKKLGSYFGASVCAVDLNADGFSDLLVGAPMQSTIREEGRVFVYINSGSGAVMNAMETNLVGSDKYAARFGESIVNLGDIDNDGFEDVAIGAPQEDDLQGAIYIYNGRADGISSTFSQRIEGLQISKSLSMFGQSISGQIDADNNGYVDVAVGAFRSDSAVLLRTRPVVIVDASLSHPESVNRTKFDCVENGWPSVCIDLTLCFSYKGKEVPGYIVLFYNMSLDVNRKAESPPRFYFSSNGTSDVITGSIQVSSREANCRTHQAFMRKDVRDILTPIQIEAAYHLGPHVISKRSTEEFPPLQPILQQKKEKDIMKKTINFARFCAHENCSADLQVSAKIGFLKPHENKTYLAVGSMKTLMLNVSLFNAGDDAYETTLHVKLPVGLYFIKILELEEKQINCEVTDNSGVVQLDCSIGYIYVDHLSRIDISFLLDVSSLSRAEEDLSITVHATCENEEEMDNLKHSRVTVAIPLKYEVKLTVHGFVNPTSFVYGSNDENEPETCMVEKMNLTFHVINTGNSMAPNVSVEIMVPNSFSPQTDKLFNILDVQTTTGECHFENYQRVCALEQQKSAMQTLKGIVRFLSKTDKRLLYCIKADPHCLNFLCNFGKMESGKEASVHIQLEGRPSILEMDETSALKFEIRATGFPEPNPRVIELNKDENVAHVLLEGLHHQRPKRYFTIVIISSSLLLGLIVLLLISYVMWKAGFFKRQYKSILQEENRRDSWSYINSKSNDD
T1 sequence (P26010 20-798, chain 2 of 2): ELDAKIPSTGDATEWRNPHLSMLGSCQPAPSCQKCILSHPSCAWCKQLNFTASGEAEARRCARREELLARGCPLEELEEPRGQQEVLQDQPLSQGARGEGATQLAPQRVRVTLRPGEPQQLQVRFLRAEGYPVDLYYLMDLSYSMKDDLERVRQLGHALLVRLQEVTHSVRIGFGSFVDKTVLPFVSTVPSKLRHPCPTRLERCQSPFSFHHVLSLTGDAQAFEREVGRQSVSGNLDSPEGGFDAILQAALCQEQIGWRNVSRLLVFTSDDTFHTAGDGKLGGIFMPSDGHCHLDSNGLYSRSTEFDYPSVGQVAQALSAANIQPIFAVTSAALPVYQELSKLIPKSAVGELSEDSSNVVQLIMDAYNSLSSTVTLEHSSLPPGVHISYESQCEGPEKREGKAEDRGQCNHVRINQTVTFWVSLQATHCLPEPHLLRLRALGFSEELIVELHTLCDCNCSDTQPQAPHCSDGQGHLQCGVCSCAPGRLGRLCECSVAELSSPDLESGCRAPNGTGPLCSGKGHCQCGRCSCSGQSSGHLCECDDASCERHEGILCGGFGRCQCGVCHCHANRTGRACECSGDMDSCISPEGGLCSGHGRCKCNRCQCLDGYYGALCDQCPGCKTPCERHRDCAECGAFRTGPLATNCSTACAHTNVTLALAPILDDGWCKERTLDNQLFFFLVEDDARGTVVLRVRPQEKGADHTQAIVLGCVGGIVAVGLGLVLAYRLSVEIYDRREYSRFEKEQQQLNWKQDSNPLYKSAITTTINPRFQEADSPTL
assay details: FACS, biotinylated antibody on human CD4+CD45RA- memory T cells
assay metric: EC50 (ng/mL)
Provide only the numeric value, understood in ng/mL.

Would you please look over these solved cases?
1A10 (antibody, V domains shown, Fully human monoclonal from XenoMouse XG2kl or XG4kl mice (human IgG2 or IgG4); kappa light chain; also called 1A10K; 1A10H) VH: QVQLVQSGAEVKKPGASVKVSCKVSGYTLNDLSMHWVRQAPGKGLEWMGGFDPAEGKIISAQKFQDRVTMTDDTSTDTAYMELSSLRSEDSAVYYCATLDFSSWFDPWGQGTLVTVSS VL: DIQMTQSPSSVSASVGDRVTITCRASQGVSSWLAWYQQKPGMAPKLLIYAASILQSGVPSRFSGSGSGTDFTLTISSLQPEDFATYYCQQANSFPWTFGQGTKVEIK
4.9
27G8 (antibody, V domains shown, Fully human monoclonal from XenoMouse (human IgG2 or IgG4); lambda light chain; PE-conjugated in the cynomolgus study; also called 27G8L; 27G8H) VH: EVQLVESGGGLVQPGGSLRLSCAASGFTFSSYWMSWVRQASGKGLEWVANIKQDGSEKYYVDSVKGRFTISRDNAKNSLYLQMNSLRAEDTAVYYCAREGGYDWNYADYYGMDVWGQGTTVTVSS VL: QSVLTQPPSVSEAPRQRVTISCSGSNSNIGNNPVNWYQLFPGRAPKLLIYHDDLLPSGVSDRFSGSRSGTSASLAISGLQSEDETDYYCTAWDDSLNGWVFGGGTKLTVL
6.3

# context switch: different binder, same EC50
Ask: Let me know recorded EC50 for 2F12 (antibody, V domains shown, Fully human monoclonal from XenoMouse (human IgG2 or IgG4); kappa light chain; also called 2F12K; 2F12H) VH: QVQLVQSGAEVKKPGASVKVSCKVSGYTVTDLSMHWVRQAPGKGLEWMGGFDPQDGETIYAQKFQGRVTMTEDTSTDTAYMELRSLRSEDTAVYYCTTESSSAWFDPWGQGTLVTVSS VL: DIQMTQSPSSVFASVGDRVTITCRASQGISSWLAWYQQKPGKAPNLLIYGASSLQNGVPLRFSGSGSGTDFTLTISSLQPEDFATYYCQQANSFPWTFGQGTKVEIK , thanks.
Reply: 3.3
